Biological target: HLA-A*24:02
Assay: IEDB peptide-MHC binding, purified MHC/competitive/radioactivity; filed as Kd, often an IC50 or EC50 that approximates it; bounds were set here for any values at or beyond the usual limits of such assays
Details: source organism: Dengue virus 2 Jamaica/1409/1983
Kd values, listed per item
Answer in nM, number only, no unit symbol.

Guide cases for Kd, answers given:
[[record]]
sequence_input = "IYGAAFSGV"
value = 398

[[record]]
sequence_input = "TWSIHAKHEW"
value = 39.9

[[record]]
sequence_input = "MYFHRRDLRL"
value = 149


Okay, now this sequence:
[in] Give its Kd value. Item: `NYADRRWCF`
[out] 12.2

###

Target: HLA-C*15:02
Assay: IEDB peptide-MHC binding, purified MHC/direct/fluorescence; filed as Kd, often an IC50 or EC50 that approximates it; bounds were set here for any values at or beyond the usual limits of such assays
Conditions: source organism: SARS-CoV1
assay.readout: pKd
Bear in mind: pKd is minus log10 of a mol/L concentration; give just that figure.

[in] Give its pKd value. Item: `KSYEHQTPF`
[out] 7.96

###

Target: HLA-A*30:01
Assay: IEDB peptide-MHC binding, purified MHC/competitive/radioactivity; filed as Kd, often an IC50 or EC50 that approximates it; bounds were set here for any values at or beyond the usual limits of such assays
Settings: source organism: Dengue virus 1 Brazil/97-11/1997
assay.readout: pKd
Bear in mind: pKd is minus log10 of a mol/L concentration; give just that figure.

[in] Return pKd measured with HLA-A*30:01 given this sequence: `ATYGWNLVK`
[out] 6.67

###

Target: HLA-B*83:01
Assay: IEDB peptide-MHC binding, purified MHC/competitive/fluorescence; filed as Kd, often an IC50 or EC50 that approximates it; bounds were set here for any values at or beyond the usual limits of such assays
Settings: source organism: Yellow fever virus
assay.readout: Kd

[in] Give its Kd value. Item: `LEDGIYGIF`
[out] ≥ 5 µM

###

Molecular target: HLA-A*01:01
Assay: IEDB peptide-MHC binding, purified MHC/competitive/fluorescence; filed as Kd, often an IC50 or EC50 that approximates it; bounds were set here for any values at or beyond the usual limits of such assays
Conditions: source organism: Homo sapiens
assay.readout: Kd (nM)
Answer in nM, number only, no unit symbol.

[in] Give its Kd value. Item: `SVDGFRASY`
[out] 7.1

###

pKd values, listed per item
Target: HLA-B*40:01
Test: IEDB peptide-MHC binding, purified MHC/competitive/radioactivity; filed as Kd, often an IC50 or EC50 that approximates it; bounds were set here for any values at or beyond the usual limits of such assays
Details: source organism: Dengue virus 1 Brazil/97-11/1997
Bear in mind: pKd is minus log10 of a mol/L concentration; give just that figure.

[[record]]
sequence_input = "KEISSMLNIM"
target_or_system = "HLA-B*40:01"
assay_readout = "pKd"
value = 7.95

[[record]]
sequence_input = "SEFNTYKRSG"
target_or_system = "HLA-B*40:01"
assay_readout = "pKd"
value = 5.06


Okay, now this sequence:
[in] Give its pKd value. Item: `AEALKGMPI`
[out] 6.91

###

Target: HLA-B*51:01
Assay: IEDB peptide-MHC binding, purified MHC/competitive/fluorescence; filed as Kd, often an IC50 or EC50 that approximates it; bounds were set here for any values at or beyond the usual limits of such assays
Conditions: source organism: Choclo virus
assay.readout: Kd

[in] Give its Kd value. Item: `LPSSSSYSY`
[out] ≥ 20 µM

###

Target: HLA-A*30:01
Assay: IEDB peptide-MHC binding, purified MHC/direct/fluorescence; filed as Kd, often an IC50 or EC50 that approximates it; bounds were set here for any values at or beyond the usual limits of such assays
Settings: source organism: Escherichia coli O157:H7
assay.readout: Kd

[in] Return Kd measured with HLA-A*30:01 given this sequence: `GITGGHIPK`
[out] 72.2 nM

###

Molecular target: HLA-A*26:02
Assay: IEDB peptide-MHC binding, purified MHC/competitive/fluorescence; filed as Kd, often an IC50 or EC50 that approximates it; bounds were set here for any values at or beyond the usual limits of such assays
Details: source organism: Escherichia coli
assay.readout: Kd

[in] Give its Kd value. Item: `EQRLIDICV`
[out] ≥ 20 µM

###

pKd values, listed per item
Target: HLA-A*23:01
Assay: IEDB peptide-MHC binding, purified MHC/direct/fluorescence; filed as Kd, often an IC50 or EC50 that approximates it; bounds were set here for any values at or beyond the usual limits of such assays
Conditions: source organism: Zaire ebolavirus
pKd: −log10 of the molar value.

[[record]]
sequence_input = "DRLASTVIY"
value = "≤ 4.70"


[in] Give its pKd value. Item: `GIVSSMHYK`
[out] ≤ 4.70

###

pKd values, listed per item
Target: HLA-A*11:01
Assay: IEDB peptide-MHC binding, purified MHC/direct/fluorescence; filed as Kd, often an IC50 or EC50 that approximates it; bounds were set here for any values at or beyond the usual limits of such assays
Details: source organism: Mammarenavirus lassaense
Bear in mind: pKd is minus log10 of a mol/L concentration; give just that figure.

[[record]]
sequence_input = "LINDQLIMK"
assay_readout = "pKd"
value = 6.55


Okay, now this sequence:
[in] Return pKd measured with HLA-A*11:01 given this sequence: `MTMPLSCTK`
[out] 8.64

###

pKd values, listed per item
Molecular target: HLA-A*02:01
Test: IEDB peptide-MHC binding, purified MHC/direct/fluorescence; filed as Kd, often an IC50 or EC50 that approximates it; bounds were set here for any values at or beyond the usual limits of such assays
Details: source organism: Camelpox virus M-96
pKd: −log10 of the molar value.

Guide cases for pKd, answers given:
[[record]]
sequence_input = "YERGNIIIF"
value = "≤ 4.70"

[[record]]
sequence_input = "NRLKPRDFK"
value = "≤ 4.70"

[[record]]
sequence_input = "YLMPYSVYI"
value = "≥ 9.00"


[in] Give its pKd value. Item: `DLYDYITRI`
[out] 7.00

###

Target: HLA-A*02:03
Assay: IEDB peptide-MHC binding, purified MHC/competitive/fluorescence; filed as Kd, often an IC50 or EC50 that approximates it; bounds were set here for any values at or beyond the usual limits of such assays
Conditions: source organism: Mycobacterium tuberculosis C
assay.readout: Kd

[in] Return Kd measured with HLA-A*02:03 given this sequence: `SLVAIHLAC`
[out] ≥ 20 µM

###

Target: HLA-A*02:11
Test: IEDB peptide-MHC binding, purified MHC/direct/fluorescence; filed as Kd, often an IC50 or EC50 that approximates it; bounds were set here for any values at or beyond the usual limits of such assays
Conditions: source organism: Yersinia pestis CA88-4125
assay.readout: Kd

[in] Give its Kd value. Item: `KLLARFLFE`
[out] ≥ 20 µM

###

Molecular target: HLA-B*07:02
Assay: IEDB peptide-MHC binding, purified MHC/direct/fluorescence; filed as Kd, often an IC50 or EC50 that approximates it; bounds were set here for any values at or beyond the usual limits of such assays
Settings: source organism: Pseudomonas aeruginosa UCBPP-PA14
pKd: −log10 of the molar value.
assay.readout: pKd

[in] Return pKd measured with HLA-B*07:02 given this sequence: `YTFCRLNVK`
[out] ≤ 4.70

###

Target: HLA-B*35:01
Assay: IEDB peptide-MHC binding, purified MHC/competitive/radioactivity; filed as Kd, often an IC50 or EC50 that approximates it; bounds were set here for any values at or beyond the usual limits of such assays
Conditions: source organism: Lymphocytic choriomeningitis virus (strain Armstrong)
assay.readout: pKd
Bear in mind: pKd is minus log10 of a mol/L concentration; give just that figure.

[in] Return pKd measured with HLA-B*35:01 given this sequence: `GPMMCPFLF`
[out] 6.12

###

Target: HLA-A*02:01
Test: IEDB peptide-MHC binding, purified MHC/direct/fluorescence; filed as Kd, often an IC50 or EC50 that approximates it; bounds were set here for any values at or beyond the usual limits of such assays
Conditions: source organism: Campylobacter jejuni
assay.readout: Kd

[in] Give its Kd value. Item: `ALIVAIWDK`
[out] ≥ 20 µM

###

Molecular target: HLA-A*30:01
Experiment: IEDB peptide-MHC binding, purified MHC/competitive/radioactivity; filed as Kd, often an IC50 or EC50 that approximates it; bounds were set here for any values at or beyond the usual limits of such assays
Settings: source organism: Dengue virus 3 Martinique/1243/1999
assay.readout: Kd (µM)
Answer in µM, number only, no unit symbol.

[in] Return Kd measured with HLA-A*30:01 given this sequence: `TFKKSGAIK`
[out] 1.2

###

Biological target: HLA-A*31:01
Experiment: IEDB peptide-MHC binding, purified MHC/competitive/fluorescence; filed as Kd, often an IC50 or EC50 that approximates it; bounds were set here for any values at or beyond the usual limits of such assays
Conditions: source organism: Influenza A virus (A/Gf/HK/SSP607/2003(H9N2))
assay.readout: pKd
Bear in mind: pKd is minus log10 of a mol/L concentration; give just that figure.

[in] Give its pKd value. Item: `AMITYITRK`
[out] 6.80
